List of pIC50 values.
molecular target: Voltage-dependent L-type calcium channel subunit alpha-1C (Homo sapiens, UniProt Q13936); assay: Inhibition of recombinant human Cav1.2
Sequence (Q13936 whole entry): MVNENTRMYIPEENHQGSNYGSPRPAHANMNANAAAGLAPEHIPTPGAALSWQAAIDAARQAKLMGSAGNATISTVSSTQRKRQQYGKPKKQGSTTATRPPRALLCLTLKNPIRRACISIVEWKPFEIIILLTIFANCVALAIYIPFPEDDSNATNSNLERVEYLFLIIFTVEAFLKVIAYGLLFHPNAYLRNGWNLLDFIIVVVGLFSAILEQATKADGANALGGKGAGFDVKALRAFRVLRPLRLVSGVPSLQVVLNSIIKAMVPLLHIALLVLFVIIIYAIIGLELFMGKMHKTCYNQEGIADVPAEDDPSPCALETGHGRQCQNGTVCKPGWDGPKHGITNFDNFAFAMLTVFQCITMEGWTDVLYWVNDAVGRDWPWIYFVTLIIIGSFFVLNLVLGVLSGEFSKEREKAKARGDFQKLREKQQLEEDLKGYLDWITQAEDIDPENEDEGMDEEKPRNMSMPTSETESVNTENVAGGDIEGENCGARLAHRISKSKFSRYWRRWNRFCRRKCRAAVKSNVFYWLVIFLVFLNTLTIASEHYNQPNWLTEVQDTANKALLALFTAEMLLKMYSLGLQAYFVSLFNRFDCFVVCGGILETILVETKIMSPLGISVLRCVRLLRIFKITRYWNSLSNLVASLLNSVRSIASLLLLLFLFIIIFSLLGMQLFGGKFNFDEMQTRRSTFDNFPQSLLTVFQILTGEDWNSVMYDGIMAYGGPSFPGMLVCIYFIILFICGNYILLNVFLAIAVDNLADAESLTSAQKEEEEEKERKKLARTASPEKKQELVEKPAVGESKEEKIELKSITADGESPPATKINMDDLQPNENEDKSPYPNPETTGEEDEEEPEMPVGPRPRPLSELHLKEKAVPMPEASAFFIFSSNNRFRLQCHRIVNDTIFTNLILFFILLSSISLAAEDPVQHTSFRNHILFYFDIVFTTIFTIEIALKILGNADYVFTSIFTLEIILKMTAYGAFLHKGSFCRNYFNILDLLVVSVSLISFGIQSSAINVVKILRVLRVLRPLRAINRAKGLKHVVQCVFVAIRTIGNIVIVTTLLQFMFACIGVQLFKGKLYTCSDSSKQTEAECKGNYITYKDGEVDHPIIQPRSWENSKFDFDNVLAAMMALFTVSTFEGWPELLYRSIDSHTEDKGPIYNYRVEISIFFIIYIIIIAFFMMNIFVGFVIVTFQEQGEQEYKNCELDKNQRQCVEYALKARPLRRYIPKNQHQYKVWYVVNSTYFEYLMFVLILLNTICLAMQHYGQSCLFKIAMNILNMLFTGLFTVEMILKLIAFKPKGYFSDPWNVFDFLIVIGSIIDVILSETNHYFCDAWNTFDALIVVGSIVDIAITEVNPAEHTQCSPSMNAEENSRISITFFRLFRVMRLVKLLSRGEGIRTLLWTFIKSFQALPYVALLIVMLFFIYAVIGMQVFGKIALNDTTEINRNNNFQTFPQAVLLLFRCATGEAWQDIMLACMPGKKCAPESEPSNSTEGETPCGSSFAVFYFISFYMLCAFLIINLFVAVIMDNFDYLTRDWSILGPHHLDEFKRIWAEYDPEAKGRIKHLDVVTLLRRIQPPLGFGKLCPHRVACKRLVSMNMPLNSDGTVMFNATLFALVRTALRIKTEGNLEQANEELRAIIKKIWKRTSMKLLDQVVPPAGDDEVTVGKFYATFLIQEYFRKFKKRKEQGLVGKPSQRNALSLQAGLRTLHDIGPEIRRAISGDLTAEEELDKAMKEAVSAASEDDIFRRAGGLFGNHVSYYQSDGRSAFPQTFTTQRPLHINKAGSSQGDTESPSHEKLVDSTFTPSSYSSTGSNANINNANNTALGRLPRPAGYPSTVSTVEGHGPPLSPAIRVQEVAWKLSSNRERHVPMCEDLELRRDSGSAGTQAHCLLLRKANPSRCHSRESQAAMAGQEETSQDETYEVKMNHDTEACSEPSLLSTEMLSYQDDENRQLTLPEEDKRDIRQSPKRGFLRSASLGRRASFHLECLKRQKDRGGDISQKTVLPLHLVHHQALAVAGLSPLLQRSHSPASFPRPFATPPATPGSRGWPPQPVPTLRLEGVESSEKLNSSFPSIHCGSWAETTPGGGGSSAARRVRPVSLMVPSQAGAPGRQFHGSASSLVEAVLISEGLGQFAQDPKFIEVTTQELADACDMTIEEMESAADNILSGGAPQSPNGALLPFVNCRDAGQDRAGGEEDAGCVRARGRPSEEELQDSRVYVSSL
pIC50: −log10 of the molar value.

>  <entry smiles>
O=c1cc(CO)n(-c2c(Cl)cccc2Cl)c2c(Cl)cnc(OC[C@@H](O)CO)c12

>  <pIC50>
< 4.30

$$$$
>  <entry smiles>
Cc1cc(=O)c2c(F)cncc2n1-c1c(Cl)cc(C#N)cc1Cl

>  <pIC50>
< 4.30

$$$$
>  <entry smiles>
CSc1c(C#N)c(=O)c2ccc(F)cc2n1-c1c(Cl)cccc1Cl

>  <pIC50>
4.62

$$$$
>  <entry smiles>
O=c1cc(CO)n(-c2c(Cl)cccc2Cl)c2c(Cl)cnc(OC[C@H](O)CO)c12

>  <pIC50>
< 4.30

$$$$
